Molecular target: Siglec-2 (human CD22) (Homo sapiens)
Sequence (P20273 20-138 limits assumed): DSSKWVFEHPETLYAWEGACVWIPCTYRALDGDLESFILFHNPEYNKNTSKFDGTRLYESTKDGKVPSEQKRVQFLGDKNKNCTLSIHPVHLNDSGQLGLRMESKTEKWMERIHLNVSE
Experiment: Hapten inhibition assay, Siglec-2 (human CD22)
Assay type: binding
Settings: quotient IC50 reference compound / IC50 compound
measurement-name: Siglec-2 (human CD22) rIP

Field: example entries. Status: answers known.
> print(dat)
                                   compound  readout.value
1  CO[C@]1(C(=O)O)CC(O)[C@@H](NC(C)=O)C([C@@H](O)[C@H](O)CNC(=O)c2ccc(-c3ccccc3)cc2)O1 (some centres unmarked)            150
2  COC1(C(=O)O)CC(O)C(NC(C)=O)C(C(O)C(O)CNC(=O)c2ccc3ccccc3c2)O1 (centres unmarked)            167

1: CS[C@]1(C(=O)O)C[C@H](O)[C@@H](NC(C)=O)[C@H]([C@H](O)[C@H](O)CO)O1 [Methylthio-α-Neu5Ac]
2: CO[C@]1(C(=O)O)C[C@H](O)[C@@H](NC(=O)CO)[C@H]([C@H](O)[C@H](O)CO)O1 [Methyl-α-5-N-glycolyl-neuraminic acid]
3: COC1(C(=O)O)CC(O)C(NC(C)=O)C(C(O)C(O)CNC(=O)c2cccc3cc4ccccc4cc23)O1 (centres unmarked)
Sort by Siglec-2 (human CD22) rIP, descending. Provide your answer as the labels ordered per the instruction.
3, 1, 2
(3: 4.9, 1: 1.6, 2: 1.0)

Origin of values: patent US7820714B2
